Measured Phage binding ELISA CD28 scFv signal values are reported for all entries that follow.
molecular target: Anti-CD28 scFv (VH-linker 1-VL); experiment: phage ELISA: biotinylated anti-CD28 scFv on neutravidin plate, clonal phage supernatant, anti-M13-HRP;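 further: before phage addition, wells were preincubated either with soluble CD28 protein in blocking buffer or with blocking buffer only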
Sequence (scFv, as listed by the source): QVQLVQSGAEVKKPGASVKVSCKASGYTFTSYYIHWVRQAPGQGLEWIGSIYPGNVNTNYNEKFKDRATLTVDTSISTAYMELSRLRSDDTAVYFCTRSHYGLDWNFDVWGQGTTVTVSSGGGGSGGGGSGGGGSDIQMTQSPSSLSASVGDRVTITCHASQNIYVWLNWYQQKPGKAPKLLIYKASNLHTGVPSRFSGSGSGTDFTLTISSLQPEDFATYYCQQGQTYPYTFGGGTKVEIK
Result Type: Phage binding ELISA CD28 scFv signal

1. MDLCPTAMWNRCFY (Clonal phage from the Peptide-9 library) [Phage-425]: 0.097
2. IYWCPIDRWNDCYN (Clonal phage from the Peptide-9 library) [Phage-442]: 0.867
3. MDWCPMTRWNDCYF (Clonal phage from the Peptide-9 library) [Phage-443]: 0.671
4. MDWCPRDRWVDCYA (Clonal phage from the Peptide-9 library) [Phage-435]: 1.48
5. MDWCPSDYWYVCFA (Clonal phage from the Peptide-9 library) [Phage-453]: 0.707
6. MFLCPSAMWNRCFY (Clonal phage from the Peptide-9 library) [Phage-426]: 0.094
7. MDWCPVDRWADCFN (Clonal phage from the Peptide-9 library) [Phage-437]: 1.16
8. MDWCPRFWWHECYA (Clonal phage from the Peptide-9 library) [Phage-451]: 2.4
9. MDWCPRDRWDVCYY (Clonal phage from the Peptide-9 library) [Phage-447]: 0.074
10. VILCPTTMWNRCFH (Clonal phage from the Peptide-9 library) [Phage-427]: 0.072
11. MNWCPSTMWNRCLT (Clonal phage from the Peptide-9 library) [Phage-428]: 0.065
12. MAWCPADQWHECFN (Clonal phage from the Peptide-9 library) [Phage-431]: 1.84
13. MDWCPRDRWDDCFN (Clonal phage from the Peptide-9 library) [Phage-446]: 0.45
14. MDWCPRDRWVDCFN (Clonal phage from the Peptide-9 library) [Phage-440]: 0.911
15. MDWCPRDWWHMCFN (Clonal phage from the Peptide-9 library) [Phage-452]: 2.12
16. MDWCPRDRWDDCFF (Clonal phage from the Peptide-9 library) [Phage-441]: 0.899
17. IDWCPIIQGLPCFA (Clonal phage from the Peptide-9 library) [Phage-432]: 0.368
18. MDWCPRDRWDVCFA (Clonal phage from the Peptide-9 library) [Phage-439]: 0.924
19. MVDCPLISFDECLA (Clonal phage from the Peptide-9 library) [Phage-449]: 0.07
20. MAWCPWASFDECLA (Clonal phage from the Peptide-9 library) [Phage-448]: 0.089
21. MDWCPMSRWAFCFD (Clonal phage from the Peptide-9 library) [Phage-438]: 1
22. MDWCPRARWHDCFF (Clonal phage from the Peptide-9 library) [Phage-445]: 0.497
23. MDWCPRDRWADCFN (Clonal phage from the Peptide-9 library) [Phage-436]: 1.35
24. INLCPTPMWNRCWL (Clonal phage from the Peptide-9 library) [Phage-423]: 0.103
